src = the supplement of paper PMC7877785

Listed below: self-splicing fitness (ln) values for each entry.
test: self-splicing fitness, log relative to wild type (ln ratio); higher = more splicing; Tetrahymena group I intron in knt gene, E. coli kanamycin selection, DiMSum; sequences stand for … in CUCUCU…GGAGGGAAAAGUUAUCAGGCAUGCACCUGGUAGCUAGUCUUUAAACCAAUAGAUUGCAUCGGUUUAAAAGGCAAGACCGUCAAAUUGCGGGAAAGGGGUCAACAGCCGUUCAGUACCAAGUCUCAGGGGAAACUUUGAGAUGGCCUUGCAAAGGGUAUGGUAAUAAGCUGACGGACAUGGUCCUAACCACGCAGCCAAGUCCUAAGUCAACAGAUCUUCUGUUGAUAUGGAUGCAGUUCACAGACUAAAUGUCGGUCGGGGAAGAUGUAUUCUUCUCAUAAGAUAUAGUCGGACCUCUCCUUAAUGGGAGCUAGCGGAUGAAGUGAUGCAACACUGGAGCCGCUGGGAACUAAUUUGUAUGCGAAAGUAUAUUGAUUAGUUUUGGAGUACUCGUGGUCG; details: 37 °C;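 also: selection with 25 µg/mL kanamycin versus none on LB agar overnight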
Just the number.

In the examples that follow, each entry is paired with its recorded self-splicing fitness (ln).
>>> experimental_result("AGUCAGCAAUAUUACGCACC")
0.383
>>> experimental_result("CGCGAGCAAUAUUACGUUUA")
-3.3

Proceeding to the next sequence to report its self-splicing fitness (ln).
// query Output measured self-splicing fitness (ln) for this item: `UGUCAGCAAUAUUACGCCGU`
// result -1.12

* * *

assay: self-splicing fitness, log relative to wild type (ln ratio); higher = more splicing; Tetrahymena group I intron in knt gene, E. coli kanamycin selection, DiMSum; sequences stand for … in CUCUCU…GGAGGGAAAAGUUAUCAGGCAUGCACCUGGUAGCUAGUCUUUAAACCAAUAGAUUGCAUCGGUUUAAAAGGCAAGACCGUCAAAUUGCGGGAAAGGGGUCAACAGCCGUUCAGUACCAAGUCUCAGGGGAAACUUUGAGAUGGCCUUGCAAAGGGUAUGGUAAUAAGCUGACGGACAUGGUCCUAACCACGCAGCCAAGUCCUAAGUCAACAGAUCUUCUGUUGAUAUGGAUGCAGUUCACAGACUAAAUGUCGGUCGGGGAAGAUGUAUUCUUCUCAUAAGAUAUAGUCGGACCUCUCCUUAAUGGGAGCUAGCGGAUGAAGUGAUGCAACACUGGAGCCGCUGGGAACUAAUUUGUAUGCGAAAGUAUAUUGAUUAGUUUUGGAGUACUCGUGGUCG; settings: 30 °C
ENDPOINT_LABEL: self-splicing fitness (ln)
Just the number.

In the examples that follow, each entry is paired with its recorded self-splicing fitness (ln).
>>> experimental_result("AUGAAGCAAUAUUACGGUUA")
-0.509
>>> experimental_result("CAUCAGCAAUAUUACGGUGC")
-3.55
>>> experimental_result("GAGGAGCAAUAUUACGCAGG")
-1.91
>>> experimental_result("GACAAGCAAUAUUACGGGUG")
-0.472

// query Output measured self-splicing fitness (ln) for this item: `CGUAAGCAAUAUUACGGCAU`
// result -3.27

// query Output measured self-splicing fitness (ln) for this item: `CAGCAGCAAUAUUACGCCUU`
// result -0.761

// query Output measured self-splicing fitness (ln) for this item: `UCAUAGCAAUAUUACGAGUG`
// result -1.8

// query Output measured self-splicing fitness (ln) for this item: `UUCAAGCAAUAUUACGGGUC`
// result -4.54

// query Output measured self-splicing fitness (ln) for this item: `AGGAAGCAAUAUUACGAACU`
// result -0.35

// query Output measured self-splicing fitness (ln) for this item: `GCAUAGCAAUAUUACGUGAA`
// result -0.877

// query Output measured self-splicing fitness (ln) for this item: `CGGCAGCAAUAUUACGGUCA`
// result -0.0453

// query Output measured self-splicing fitness (ln) for this item: `CAAGAGCAAUAUUACGACAG`
// result -0.511

// query Output measured self-splicing fitness (ln) for this item: `GAUAAGCAAUAUUACGGCUA`
// result -0.974
